Cited source for all entries: the emibetuzumab library of Makowski et al. (2022)

B1: VH:VL chains; a variant is named by its letters at X, in order (parent)
chain 1: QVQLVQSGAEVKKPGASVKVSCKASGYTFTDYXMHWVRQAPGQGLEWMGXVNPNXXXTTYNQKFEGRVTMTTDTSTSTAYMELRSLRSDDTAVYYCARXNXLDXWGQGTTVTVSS
chain 2: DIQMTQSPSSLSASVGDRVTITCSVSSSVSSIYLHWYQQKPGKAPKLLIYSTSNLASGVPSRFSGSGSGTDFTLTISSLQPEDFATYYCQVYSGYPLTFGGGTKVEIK

- Variants of: B1
- assay-overview: yeast display scFab, FACS + sequencing
readout-label: non-specific binding call

> print(dat)
   mutation.code              readout.label      result
1       YKRGDSGF  non-specific binding call  no binding
2       YRERGAAA  non-specific binding call       binds
3       ATGANAGD  non-specific binding call  no binding
